target.or.test.system: sRAGE (ligand Amyloid-β) (Homo sapiens, UniProt Q15109)
Construct: extracellular domain can be isolated by proteolysis of RAGE to generate soluble RAGE (sRAGE) comprised of the V and C domains
Sequence (Q15109 23-342 limits assumed): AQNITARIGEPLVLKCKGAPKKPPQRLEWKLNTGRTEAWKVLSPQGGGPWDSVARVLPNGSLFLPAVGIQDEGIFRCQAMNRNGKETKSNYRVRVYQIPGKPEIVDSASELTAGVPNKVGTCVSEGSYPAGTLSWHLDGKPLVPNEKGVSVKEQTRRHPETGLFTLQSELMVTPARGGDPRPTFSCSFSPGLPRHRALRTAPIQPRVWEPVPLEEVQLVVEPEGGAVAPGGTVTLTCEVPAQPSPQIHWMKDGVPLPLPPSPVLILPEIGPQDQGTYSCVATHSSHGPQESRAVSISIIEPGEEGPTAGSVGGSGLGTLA
measurement.notes: ELISA assay: inhibition of sRAGE binding to plate-bound β-amyloid
measurement.parameters: sRAGE binding to immobilised β-amyloid; concentration at which 50% signal has been inhibited
parameter: IC50

CCCCn1c([C@H](N)Cc2ccc(OCc3ccccc3)cc2)nc2cc(OCCCN(CC)CC)ccc21	1 to 5 µM

Lab request: please report IC50 under test system sRAGE (ligand Amyloid-β) (Homo sapiens, UniProt Q15109) for `CCN(CC)CCCOc1ccc2nc([C@@H](Cc3ccc(OCc4ccccc4)cc3)NC(=O)OC(C)(C)C)n(CC)c2c1`
1 to 5 µM

// lookup IC50 | system=sRAGE (ligand Amyloid-β) (Homo sapiens, UniProt Q15109) | key= `CCCCn1c([C@@H](Cc2ccc(OCc3ccccc3)cc2)NC(=O)OC(C)(C)C)nc2cc(OCCCN(CC)CC)ccc21`
1 to 5 µM

----------
The compounds listed here are annotated with their IC50.
target.or.test.system: sRAGE (ligand Amyloid-β) (Homo sapiens)
Construct: extracellular domain can be isolated by proteolysis of RAGE to generate soluble RAGE (sRAGE) comprised of the V and C domains
measurement.notes: ELISA assay: inhibition of sRAGE binding to plate-bound β-amyloid
measurement.parameters: sRAGE binding to immobilised β-amyloid; concentration at which 50% signal has been inhibited

Here's what some known entries look like.
CCN(CC)CCCOc1ccc2nc([C@@H](Cc3ccc(OCc4ccccc4)cc3)NC(=O)OC(C)(C)C)n(Cc3ccccc3)c2c1	5 to 10 µM
CCCn1c([C@@H](Cc2ccc(OCc3ccccc3)cc2)NC(=O)OC(C)(C)C)nc2ccc(OCCCN(CC)CC)cc21	5 to 10 µM

So what does the record say about IC50 for `CCN(CC)CCCOc1ccc2nc([C@H](N)Cc3ccc(OCc4ccccc4)cc3)n(Cc3ccccc3)c2c1` ?
10 to 20 µM

So what does the record say about IC50 for `CCN(CC)CCCOc1ccc2nc([C@H](N)Cc3ccc(OCc4ccccc4)cc3)n(CCCN(CC)CC)c2c1` ?
1 to 5 µM

State the recorded IC50 for this entry: `CCN(CC)CCCOc1ccc2nc([C@@H](Cc3ccc(OCc4ccccc4)cc3)NC(=O)OC(C)(C)C)n(CCCN(CC)CC)c2c1`
5 to 10 µM

Given `CCN(CC)CCCOc1ccc2[nH]c([C@H](N)Cc3ccc(OCc4ccccc4)cc3)nc2c1` , state its recorded IC50.
5 to 10 µM

Value lookup for IC50; key = `CCCCn1c([C@H](N)Cc2ccc(OCc3ccccc3)cc2)nc2ccc(OCCCN(CC)CC)cc21`
1 to 5 µM

Need IC50, item `CCCCn1c([C@@H](Cc2ccc(OCCc3ccc(Cl)cc3)cc2)NC(=O)OC(C)(C)C)nc2ccc(OCCCN(CC)CC)cc21`
0.5 to 1 µM

----------
target.or.test.system: sRAGE (ligand Carboxymethyl Lysine (CML)) (Homo sapiens)
Construct: extracellular domain can be isolated by proteolysis of RAGE to generate soluble RAGE (sRAGE) comprised of the V and C domains
measurement.notes: ELISA assay: inhibition of sRAGE binding to plate-bound CML
measurement.parameters: sRAGE binding to immobilised CML; concentration at which 50% signal has been inhibited
parameter: IC50

Answered cases to consult:
CCN(CC)CCCOc1ccc2nc([C@@H](Cc3ccc(OCc4ccccc4)cc3)NC(=O)OC(C)(C)C)n(CC)c2c1 [Example 11]	1 to 5 µM
CCCCn1c([C@H](N)Cc2ccc(OCc3ccccc3)cc2)nc2ccc(OCCCN(CC)CC)cc21 [Example 2]	1 to 5 µM
CCCCn1c([C@@H](Cc2ccc(OCc3ccccc3)cc2)NC(=O)OC(C)(C)C)nc2ccc(OCCCN(CC)CC)cc21 [Example 1]	0.5 to 1 µM

Now turn to the next compound.
Look up IC50: CCN(CC)CCCOc1ccc2[nH]c([C@@H](Cc3ccc(OCc4ccccc4)cc3)NC(=O)OC(C)(C)C)nc2c1 [Example 5]
5 to 10 µM
